- Experimental Target: ABCC5 (Homo sapiens, UniProt O15440)
- Construct: inside-out vesicles (IOV)s where erythrocytes from healthy, human donors were sampled; endogenous in cells; host or cells: inside-out vesicles from erythrocytes of healthy human donors
- Sequence (O15440 whole entry): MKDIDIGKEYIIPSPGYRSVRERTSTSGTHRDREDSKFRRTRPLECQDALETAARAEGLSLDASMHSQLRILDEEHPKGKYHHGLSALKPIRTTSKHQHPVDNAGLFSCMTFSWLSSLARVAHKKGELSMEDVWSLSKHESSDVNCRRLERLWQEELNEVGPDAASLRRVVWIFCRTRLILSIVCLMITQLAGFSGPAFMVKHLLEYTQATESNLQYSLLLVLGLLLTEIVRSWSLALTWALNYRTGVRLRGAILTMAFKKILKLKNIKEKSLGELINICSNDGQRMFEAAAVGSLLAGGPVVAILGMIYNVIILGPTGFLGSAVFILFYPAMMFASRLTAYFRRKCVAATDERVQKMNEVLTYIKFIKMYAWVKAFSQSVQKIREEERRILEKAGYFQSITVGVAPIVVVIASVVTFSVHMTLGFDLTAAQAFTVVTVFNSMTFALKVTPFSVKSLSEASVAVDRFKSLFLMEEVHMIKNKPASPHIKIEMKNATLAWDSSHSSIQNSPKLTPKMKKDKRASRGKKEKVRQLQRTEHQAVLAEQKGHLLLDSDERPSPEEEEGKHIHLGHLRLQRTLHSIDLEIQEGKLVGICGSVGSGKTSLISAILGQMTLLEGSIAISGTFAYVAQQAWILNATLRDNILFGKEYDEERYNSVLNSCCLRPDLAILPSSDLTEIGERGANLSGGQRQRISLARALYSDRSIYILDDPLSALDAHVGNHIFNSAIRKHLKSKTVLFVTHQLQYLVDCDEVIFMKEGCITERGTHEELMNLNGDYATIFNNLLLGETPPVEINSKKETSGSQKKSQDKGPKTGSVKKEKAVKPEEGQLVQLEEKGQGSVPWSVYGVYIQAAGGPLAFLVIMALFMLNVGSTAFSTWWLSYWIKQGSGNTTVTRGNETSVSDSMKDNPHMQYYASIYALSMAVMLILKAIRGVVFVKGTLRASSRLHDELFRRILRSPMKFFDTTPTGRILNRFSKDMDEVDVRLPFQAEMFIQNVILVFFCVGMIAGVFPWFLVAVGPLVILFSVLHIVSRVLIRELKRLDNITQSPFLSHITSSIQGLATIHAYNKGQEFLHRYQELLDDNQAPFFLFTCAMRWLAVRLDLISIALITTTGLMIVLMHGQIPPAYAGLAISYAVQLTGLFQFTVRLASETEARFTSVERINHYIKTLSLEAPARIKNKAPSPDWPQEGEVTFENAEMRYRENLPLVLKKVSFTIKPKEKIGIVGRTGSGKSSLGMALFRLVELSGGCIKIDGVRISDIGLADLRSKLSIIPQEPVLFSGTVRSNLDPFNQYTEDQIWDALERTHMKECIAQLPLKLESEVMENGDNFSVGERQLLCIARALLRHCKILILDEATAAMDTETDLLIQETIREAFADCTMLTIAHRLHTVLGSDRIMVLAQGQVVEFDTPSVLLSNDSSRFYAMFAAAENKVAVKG
- Experimental Protocol: Inhibition of [3H]-cGMP efflux in erythrocyte inside-out vesicles
- Format: biochemical
- Condition Summary: 37 °C
Metric: IC50 (nM)

[[record]]
smiles_code = "CC(=O)CCCCn1c(=O)c2c(ncn2C)n(C)c1=O"
metric = "IC50"
endpoint_result = 531


* * *

- Tested on: Recombinant human PDE3
- Experimental Protocol: Inhibition of PDE3-mediated enzymatic breakdown of cAMP
- Assay type: biochemical
- Condition Summary: 20 °C
Metric: IC50

[[record]]
smiles_code = "CC(=O)CCCCn1c(=O)c2c(ncn2C)n(C)c1=O"
metric = "IC50"
endpoint_result = "31 µM"

